Cited source: the supplement of paper PMC6555819

Tested on: PPARg DBDmut IVT, anti-PPARg (DBD mutation: PPARg1 K132A/R137A, NR concentration 270 nM)
Test: PBM binding z-score (relative to random genomic background probes); higher = stronger binding; sequences stand for … in GC…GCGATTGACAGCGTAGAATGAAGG
Measurement Kind: PBM binding z-score
No unit in the answer, only the number.

Guide cases for PBM binding z-score, answers given:
TCTTGTATATCAGCAGGTTAAGAAAGCTGGCCAA	0.41
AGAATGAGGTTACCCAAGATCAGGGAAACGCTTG	1.21
CAGACAGGGTCAGCTAGGCCAGAGTAGGGACGGC	-0.169

Which PBM binding z-score reading was recorded for the sequence ATATGTAGGTTAGCTCGGGTCATTCAGACTAGGC ?
1.22

Report PBM binding z-score for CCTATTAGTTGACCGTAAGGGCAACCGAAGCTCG please.
-0.0421

Which PBM binding z-score value is on record for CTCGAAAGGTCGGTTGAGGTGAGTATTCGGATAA ?
0.135

* * *

Measured PBM binding z-score values are reported for all entries that follow.
Test system: RARg:RXRa (NR concentration 270 nM, RXRa partner concentration 90 nM)
Test: PBM binding z-score (relative to random genomic background probes); higher = stronger binding; sequences stand for … in GC…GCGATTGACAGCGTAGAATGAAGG
Answer with the value's number alone.

As a guide, the following entries are already answered.
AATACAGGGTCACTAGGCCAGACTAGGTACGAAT	5.28
CTCGAAAGGCCGGTTGAGGTGAGTATACGGATAA	0.273
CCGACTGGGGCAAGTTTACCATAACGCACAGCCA	0.446
CAGACTGGGGCAGAAAGGTTACCATACCATCCGG	2.09
CCTCGGAGGACAGAAGGCCAGAGCTGTCCGCTTT	-0.112
TCTGCTAGGTCTGTTGGTCAGCTAACGAGCTGCC	-0.258
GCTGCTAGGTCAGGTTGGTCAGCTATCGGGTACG	2.44
CGAACTAGGTCAAGGTCAAAGTCGGTTTGTGCCA	5.97
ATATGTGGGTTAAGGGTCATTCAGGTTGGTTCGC	4.83
CAAACAGGGTCAGCTAGGCCAGAGTAGGGACGGC	4.72

Item: TGAATGAGTTTATAAGATCAGGGAACGTTGCAAA Test system: RARg:RXRa (NR concentration 270 nM, RXRa partner concentration 90 nM) Read-out: PBM binding z-score Value: ?
0.181

Could you share what PBM binding z-score was measured for ATCGAAAGGTCGGGGTGAGTATAGAGAAAGGGAA , tested on RARg:RXRa (NR concentration 270 nM, RXRa partner concentration 90 nM)?
3.7

* * *

Test system: PPARg:RXRa 30nM:10nM, anti-RXR (NR concentration 30 nM, RXRa partner concentration 10 nM)
Test: PBM binding z-score (relative to random genomic background probes); higher = stronger binding; sequences stand for … in GC…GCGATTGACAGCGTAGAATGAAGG
Is PBM binding z-score at least 2? Then 1. If not, 0.

Study these solved cases before continuing.
CCGAGTAGGTTATGGGGCATTCATGCAACGGTGA	1
ACTAGCAAGCCAAGTTTGGGTCACTCAAACAAAG	0
TCGAGTAGGTTAGGAGCATTCAGAATGGCGTCGA	0

Could you verify whether the entry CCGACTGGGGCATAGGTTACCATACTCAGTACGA shows PBM binding z-score of no less than 2?
1

Tell me whether PBM binding z-score is at least 2 here: TGTATTAGTTGATTAGGGCAACCGAAACAGCGGA
0

API: above_or_equal(metric=PBM binding z-score, cutoff=2) for item ATCTCCAGGTAAAAGTTCAGTGAATCCCGAGGAT
1

In plain terms: is recorded PBM binding z-score at least 2 for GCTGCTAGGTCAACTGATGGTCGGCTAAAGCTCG ?
0

Hi team, for TAGCCCAGGTCATGCGGGCCAGTATAGTGTCGGC , is the recorded PBM binding z-score at or above 2?
0

* * *

System: PPARg:RXRa 30nM:10nM, anti-RXR (NR concentration 30 nM, RXRa partner concentration 10 nM)
Test: PBM binding z-score (relative to random genomic background probes); higher = stronger binding; sequences stand for … in GC…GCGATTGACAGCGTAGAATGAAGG
Label yes (1) for high-side PBM binding z-score (at or above 1) and no (0) for low-side PBM binding z-score (below it).

Example entries and their recorded answers appear below.
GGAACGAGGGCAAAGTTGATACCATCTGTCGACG	yes (1)
CAAACTAGGTCCCCGGAAGGTCAAAGTCCGCATG	no (0)
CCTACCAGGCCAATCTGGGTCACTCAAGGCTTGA	no (0)
TGTCAAAGTTCAAAGTTAACGTAAGTATCCACAC	yes (1)
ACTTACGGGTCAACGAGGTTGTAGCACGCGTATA	yes (1)
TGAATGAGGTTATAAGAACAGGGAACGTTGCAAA	no (0)
CCGACTGGGGCAGAAAGGTTACGATACCATCCGG	no (0)
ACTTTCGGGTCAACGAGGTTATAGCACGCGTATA	yes (1)

Say whether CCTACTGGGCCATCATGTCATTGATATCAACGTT shows PBM binding z-score of 1 or more.
no (0)

Check if PBM binding z-score >= 1 (inclusive). Item: TCGAGTAGGTTAGTCGGGGCATTCATCCAACATA
yes (1)

Identify whether the reported PBM binding z-score of the following sequence is 1 or greater: ACTAGTAGGCCAAGTTTGGGTCACTCAAACAAAG
no (0)

Does CGTCAAAGTTCAAGTAAGGTAACGTAAAGCACGC have a reported PBM binding z-score of at least 1?
yes (1)

* * *

Test system: PPARa:RXRa (NR concentration 270 nM, RXRa partner concentration 90 nM)
Test: PBM binding z-score (relative to random genomic background probes); higher = stronger binding; sequences stand for … in GC…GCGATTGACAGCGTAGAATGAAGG
Measurement Kind: PBM binding z-score
// no unit, no text: just the number

Param readout = PBM binding z-score; param system = PPARa:RXRa (NR concentration 270 nM, RXRa partner concentration 90 nM); param query = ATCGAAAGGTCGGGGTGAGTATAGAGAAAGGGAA ; response: value
4.39

Query the reported PBM binding z-score for PPARa:RXRa (NR concentration 270 nM, RXRa partner concentration 90 nM); item: TCTATTAGTTGAAGGGCAACCAACGAGTCCGTTT
0.554

What value of PBM binding z-score on PPARa:RXRa (NR concentration 270 nM, RXRa partner concentration 90 nM) does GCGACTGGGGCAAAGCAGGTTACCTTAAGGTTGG have?
1.31

Param readout= PBM binding z-score; system= PPARa:RXRa (NR concentration 270 nM, RXRa partner concentration 90 nM); entry= CCGACTGGCGCAAAGGTTACCATACTCAGTACGA ; returns value.
3.45

Checklist item: PBM binding z-score tested on PPARa:RXRa (NR concentration 270 nM, RXRa partner concentration 90 nM), entry TAGCCTAGGTCATGAGGGCCAGTATAGTGTCGGC , value?
3.69

Short answer please: PBM binding z-score, PPARa:RXRa (NR concentration 270 nM, RXRa partner concentration 90 nM), entry ATCTCTAGGTAATACTCAGTTCAGTGAAGAACGC
0.541

* * *

Tested on: THRa homodimer (NR concentration 90 nM)
Test: PBM binding z-score (relative to random genomic background probes); higher = stronger binding; sequences stand for … in GC…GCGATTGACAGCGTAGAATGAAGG
Threshold rule: PBM binding z-score greater than or equal to 0.6 is Fulfilled; below that, Not fulfilled.

Example entries begin here.
TGAATGAGGTTAAAGATCAGGGGACGTGGCGTCG	Fulfilled
CCTAGCATGCCAATCTGGGTCACTCAAGGCTTGA	Not fulfilled
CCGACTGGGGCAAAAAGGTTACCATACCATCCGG	Not fulfilled
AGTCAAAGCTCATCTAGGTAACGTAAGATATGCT	Not fulfilled

Assess whether reported PBM binding z-score for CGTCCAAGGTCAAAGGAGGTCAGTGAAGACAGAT sits at 0.6 or higher.
Fulfilled

Please indicate if the recorded PBM binding z-score for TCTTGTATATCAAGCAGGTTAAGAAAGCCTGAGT meets or exceeds 0.6.
Not fulfilled

Does ACTATTAGTAGACTTAGGGCAACCGATACGACGC have a reported PBM binding z-score of at least 0.6?
Not fulfilled

Say whether GATACAGGGTCAGCTAGAGGCAAGAGTATGGAAA shows PBM binding z-score of 0.6 or more.
Not fulfilled

Is PBM binding z-score at least 0.6? Consider AAAGACAGGTGATGAAGGTAACTCAGGCTATCAT
Not fulfilled

# check: PBM binding z-score of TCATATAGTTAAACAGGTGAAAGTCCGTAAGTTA is greater than or equal to 0.6
Not fulfilled

Could you tell me if the measured PBM binding z-score of TGTATTAGTTGAAGGGCAACCGACGAGTCCGTTT reaches 0.6 or more?
Not fulfilled

Threshold query (PBM binding z-score >= 0.6) on TCATATAGGTAAGACAGGTGAAAGTCGGCATCTA
Not fulfilled

Evaluate TCTAGCAGTCCAGAGGGTCACTCAAGAGGTACGG : PBM binding z-score at minimum 0.6?
Not fulfilled

Decide: is the reported value of PBM binding z-score for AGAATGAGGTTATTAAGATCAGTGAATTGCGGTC equal to or greater than 0.6?
Fulfilled

Does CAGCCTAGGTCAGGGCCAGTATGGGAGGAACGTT have a reported PBM binding z-score of at least 0.6?
Not fulfilled

API: above_or_equal(metric=PBM binding z-score, cutoff=0.6) for item ATATGTAGGTTATCGGGTCCTTCAGTTTGCGCAT
Fulfilled
